- assay_remarks: Maximum time taken by the drug to reach peak concentration after peroral administration of 5.2 mg/kg of drug male in Dawley rats
- Type: ADME, organism-based
- Set-up: dose 5.2 mg/kg, route oral
- measurement_parameters: Sprague-Dawley, rat, in vivo, po
measure: Tmax

Task: // lookup Tmax for O=c1c2c(oc(O)c1C(c1cccc(NS(=O)(=O)c3ccc(F)cc3)c1)C1CC1)CCCCCC2 (stereo unspecified)
Result: 15 min

* * *

- target: Human immunodeficiency virus type 1 protease (Human immunodeficiency virus 1)
- assay_remarks: Binding affinity against HIV-1 protease
Reported log10 Ki values follow for various molecules
Heads up: the numbers are on a log10 scale; they represent Ki in nM.

Consider the reported log10 Ki for these molecules:
CCCC(c1cccc(NS(=O)(=O)c2cccnc2)c1)c1c(O)c2c(oc1=O)CCCCCC2 (stereo not given)
0.34
O=c1c2c(oc(O)c1C(c1cccc(NS(=O)(=O)c3cc(Cl)ccc3Cl)c1)C1CC1)CCCCCC2 (stereo not given)
1.87
CCCCCCCCS(=O)(=O)Nc1cccc(C(c2c(O)c3c(oc2=O)CCCCCC3)C2CC2)c1 (stereo not given)
0.78
O=C(O)c1cccc(S(=O)(=O)Nc2cccc(C(c3c(O)c4c(oc3=O)CCCCCC4)C3CC3)c2)c1 (stereo not given)
0.65
Cc1ccccc1S(=O)(=O)Nc1cccc(C(c2c(O)c3c(oc2=O)CCCCCC3)C2CC2)c1 (stereo not given)
0.97

Task: Fill blank: measured log10 Ki of the molecule CCCCC(c1cccc(NS(=O)(=O)c2ccc(C#N)cc2)c1)c1c(O)c2c(oc1=O)CCCCCC2 (stereo not given) is ____.
Result: 0.32

Task: Next up: O=c1c2c(oc(O)c1C(c1cccc(NS(=O)(=O)c3ccc(Cl)c(Cl)c3)c1)C1CC1)CCCCCC2 (stereo not given)
Result: 0.61

Task: Then this molecule: O=c1c2c(oc(O)c1C(c1cccc(NS(=O)(=O)c3cccc(Br)c3)c1)C1CC1)CCCCCC2 (stereo not given)
Result: 0.41

* * *

- assay_remarks: Half-life was measured after intravenous administration of 5.1 mg/kg of drug in male Dawley rats
- Type: ADME, organism-based
- Design: dose 5.1 mg/kg, route intravenous
- measurement_parameters: Sprague-Dawley, rat, in vivo
measure: half-life (h)
// note: answer is a bare numeric in h

Task: // query half-life value for entry "N#Cc1ccc(S(=O)(=O)Nc2cccc([C@@H](c3c(O)oc4c(c3=O)CCCCCC4)C3CC3)c2)cc1"
Result: 6.2

* * *

- assay_remarks: Half-life was measured after intravenous administration of 4.9 mg/kg of drug in male Beagle dogs
- Format: ADME, organism-based, Canis lupus familiaris
- Design: dose 4.9 mg/kg, route intravenous
- measurement_parameters: dog, in vivo
measure: half-life
Give me the value, and tack the unit on after it.

Task: Recorded half-life of N#Cc1ccc(S(=O)(=O)Nc2cccc(C(c3c(O)c4c(oc3=O)CCCCCC4)C3CC3)c2)cc1 (stereo unspecified) , please.
Result: 6.3 h

* * *

- assay_remarks: Maximum time taken by the drug to reach peak concentration after peroral administration of 5.1 mg/kg of drug in male Dawley rats
- Format: ADME, organism-based
- Set-up: dose 5.1 mg/kg, route oral
- measurement_parameters: Sprague-Dawley, rat, in vivo, po
measure: Tmax (min)
Only the number, expressed in min, is required.

Task: Give the measured Tmax of "O=c1c2c(oc(O)c1[C@H](c1cccc(NS(=O)(=O)c3ccc(F)cc3)c1)C1CC1)CCCCCC2" .
Result: 15

* * *

- assay_remarks: Total plasma clearance value was obtained after intravenous administration of 1.8 mg/kg of drug in male Beagle dogs
- Format: ADME, organism-based, Canis lupus familiaris
- Design: dose 1.8 mg/kg, route intravenous
- measurement_parameters: dog
measure: clearance

Task: Entry under review: O=c1c2c(oc(O)c1C(c1cccc(NS(=O)(=O)c3ccc(F)cc3)c1)C1CC1)CCCCCC2 (stereo unspecified) . Reported clearance?
Result: 3.17 mL/min/kg

* * *

- assay_remarks: Total plasma clearance value was obtained after intravenous administration of 2.7 mg/kg of drug in male Dawley rats
- Format: ADME, organism-based
- Set-up: dose 2.7 mg/kg, route intravenous
- measurement_parameters: Sprague-Dawley, rat
measure: clearance (mL/min/kg)
Write it as a number; the unit mL/min/kg goes unstated.

Task: Give the measured clearance of O=c1c2c(oc(O)c1C(c1cccc(NS(=O)(=O)c3ccc(F)cc3)c1)C1CC1)CCCCCC2 (stereo unspecified) .
Result: 0.717

* * *

- assay_remarks: Maximum time taken by the drug to reach peak concentration after peroral administration of 5.1 mg/kg of drug male in Dawley rats
- Format: ADME, organism-based
- Design: dose 5.1 mg/kg, route oral
- measurement_parameters: Sprague-Dawley, rat, in vivo, po
measure: Tmax (min)
Give just the numeric value; min need not be written.

Task: Using the record for N#Cc1ccc(S(=O)(=O)Nc2cccc(C(c3c(O)c4c(oc3=O)CCCCCC4)C3CC3)c2)cc1 (stereo unspecified) , report its Tmax.
Result: 15

* * *

- assay_remarks: Oral bioavailability in rat (Sprague-Dawley) (male) (dose 5 mg/kg)
- Assay type: ADME, organism-based
- measurement_parameters: in vivo
measure: bioavailability
Please make sure the unit comes right after the number.

Sample answers from the record:
Cn1cnc(S(=O)(=O)Nc2cccc([C@@H](c3c(O)c4c(oc3=O)CCCCCC4)C3CC3)c2)c1
15%
O=c1c2c(oc(O)c1[C@H](c1cccc(NS(=O)(=O)c3cccc4cccnc34)c1)C1CC1)CCCCCC2
34%
N#Cc1ccc(S(=O)(=O)Nc2cccc([C@H](c3c(O)oc4c(c3=O)CCCCCC4)C3CC3)c2)cc1
31%

Task: May I ask what bioavailability has been recorded for "N#Cc1ccc(S(=O)(=O)Nc2cccc([C@@H](c3c(O)oc4c(c3=O)CCCCCC4)C3CC3)c2)cc1" ?
Result: 42%

* * *

Below, each entry is listed alongside its reported bioavailability.
- assay_remarks: Oral bioavailability in dog (Beagle) (male) (dose 10 mg/kg p.o.)
- Format: ADME, organism-based, Canis lupus familiaris
- measurement_parameters: in vivo
State the answer as a number, implicitly in %.

O=c1c2c(oc(O)c1C(c1cccc(NS(=O)(=O)c3ccc(F)cc3)c1)C1CC1)CCCCCC2 (configuration not stated)
107

Now look at this one.
Task: Give its bioavailability value. Item: N#Cc1ccc(S(=O)(=O)Nc2cccc(C(c3c(O)c4c(oc3=O)CCCCCC4)C3CC3)c2)cc1 (configuration not stated)
Result: 77

* * *

Reported bioavailability values are given for each entry in this list.
- assay_remarks: Oral bioavailability in rat (Sprague-Dawley) (male) (dose 5.1 mg/kg p.o.)
- Format: ADME, organism-based
- measurement_parameters: in vivo
Give the number; % is assumed, so skip it.

N#Cc1ccc(S(=O)(=O)Nc2cccc(C(c3c(O)c4c(oc3=O)CCCCCC4)C3CC3)c2)cc1 (configuration not stated)
42

Field: next compound
Task: Data request, read-out bioavailability, for "O=c1c2c(oc(O)c1[C@H](c1cccc(NS(=O)(=O)c3ccc(F)cc3)c1)C1CC1)CCCCCC2"
Result: 58

* * *

// clearance lookup, one value per entry
- assay_remarks: Total plasma clearance value was obtained after intravenous administration of 2.5 mg/kg of drug in male Dawley rats
- Format: ADME, organism-based
- Parameters: dose 2.5 mg/kg, route intravenous
- measurement_parameters: Sprague-Dawley, rat
Numbers only here, please. The scale is mL/min/kg.

Task: I have this molecule here, "O=c1c2c(oc(O)c1[C@H](c1cccc(NS(=O)(=O)c3cccc4cccnc34)c1)C1CC1)CCCCCC2" , and I need its recorded clearance.
Result: 2.83

Task: Another molecule: N#Cc1ccc(S(=O)(=O)Nc2cccc(C(c3c(O)c4c(oc3=O)CCCCCC4)C3CC3)c2)cc1 (stereo not drawn)
Result: 1.25

Task: Queued: "Cn1cnc(S(=O)(=O)Nc2cccc([C@@H](c3c(O)c4c(oc3=O)CCCCCC4)C3CC3)c2)c1"
Result: 4.67

* * *

- assay_remarks: Total plasma clearance value was obtained after intravenous administration of […] mg/kg of drug in male Dawley rats
- Assay type: ADME, organism-based
- measurement_parameters: male, Sprague-Dawley, rat, plasma, 2.8 mg/kg
measure: clearance (mL/min/kg)
Express the result in mL/min/kg but write the number alone.

Task: What measured clearance goes with "O=c1c2c(oc(O)c1[C@H](c1cccc(NS(=O)(=O)c3ccc(F)cc3)c1)C1CC1)CCCCCC2" ?
Result: 1.92

* * *

- assay_remarks: Maximum time taken by the drug to reach peak concentration after peroral administration of 10 mg/kg of drug male in male Beagle dogs
- Assay type: ADME, organism-based, Canis lupus familiaris
- Parameters: dose 10 mg/kg, route oral
- measurement_parameters: dog, in vivo, po
We begin with a simple list: items and their reported Tmax.
Use min as the unit, but write only the number.

N#Cc1ccc(S(=O)(=O)Nc2cccc(C(c3c(O)c4c(oc3=O)CCCCCC4)C3CC3)c2)cc1 (configuration not stated)
30

Attention now turns to another entry.
Task: Need Tmax, item O=c1c2c(oc(O)c1C(c1cccc(NS(=O)(=O)c3ccc(F)cc3)c1)C1CC1)CCCCCC2 (configuration not stated)
Result: 30
